The reported measurements were obtained from ChEMBL document CHEMBL5385882.

system.under.test: Dual specificity protein kinase CLK1 (Homo sapiens, UniProt P49759)
Sequence (P49759 whole entry, looked up): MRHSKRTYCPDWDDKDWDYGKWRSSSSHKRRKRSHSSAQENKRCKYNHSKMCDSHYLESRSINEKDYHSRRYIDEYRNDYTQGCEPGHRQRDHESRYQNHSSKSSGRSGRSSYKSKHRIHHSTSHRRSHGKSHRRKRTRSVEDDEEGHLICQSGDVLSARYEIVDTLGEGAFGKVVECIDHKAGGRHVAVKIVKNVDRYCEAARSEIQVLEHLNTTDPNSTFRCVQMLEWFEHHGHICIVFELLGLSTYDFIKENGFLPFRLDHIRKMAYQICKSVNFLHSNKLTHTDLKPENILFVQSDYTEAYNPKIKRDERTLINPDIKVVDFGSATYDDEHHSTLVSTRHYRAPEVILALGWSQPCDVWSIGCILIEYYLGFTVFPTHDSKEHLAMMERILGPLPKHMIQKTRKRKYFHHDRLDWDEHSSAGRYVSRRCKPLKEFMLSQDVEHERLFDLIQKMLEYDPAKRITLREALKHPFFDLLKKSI
test.summary: Inhibition of human 130-end recombinant CLK1 assessed as remaining activity using ERMRPRKRQGSVR as substrate at 100 nM by [gamma-32P]ATP binding based scintillation counting based analysis relative to control
quantity.kind: Activity (%)

Here is how some compounds turned out for Activity.
[
  {
    "smiles.text": "O=C(Nc1cnc2[nH]cc(-c3cncc(F)c3)c2c1)c1ccco1",
    "output.unit": "%",
    "Activity": 64
  },
  {
    "smiles.text": "Nc1cccc(-c2c[nH]c3ncc(NCc4cc(F)cc(F)c4)cc23)c1",
    "output.unit": "%",
    "Activity": 28
  },
  {
    "smiles.text": "Nc1ncc(-c2c[nH]c3ncc(NCc4cc(F)cc(F)c4)cc23)cn1",
    "output.unit": "%",
    "Activity": 26
  }
]

I = COc1cc(Cl)ccc1C(=O)Nc1cnc2[nH]cc(-c3cccnc3)c2c1
II = c1cncc(-c2c[nH]c3ncc(NCc4ccc(N5CCOCC5)cc4)cc23)c1
III = CCCc1ccc(-c2c[nH]c3ncc(NCc4cc(F)cc(F)c4)cc23)cc1
Query :: Rank the 3 compounds: largest Activity first, smallest last. Would you mind listing the labels in the order requested?
Result :: III, II, I
(III: 85%, II: 28%, I: 17%)

1 = CCN(CC)c1ccc(CNc2cnc3[nH]cc(-c4cccnc4)c3c2)cc1
2 = CC(C)c1cccc(CNc2cnc3[nH]cc(-c4cccnc4)c3c2)c1
3 = CN1CCN(c2ccc(C(=O)Nc3cnc4[nH]cc(-c5cncc(F)c5)c4c3)cc2)CC1
Query :: # desc sort on Activity across 3 compounds Please list the labels in the order you were asked to rank them.
Result :: 1, 2, 3
(1: 33%, 2: 16%, 3: 2%)

P = FC(F)(F)c1cccc(CNc2cnc3[nH]cc(-c4cccnc4)c3c2)c1
Q = O=C(Nc1cnc2[nH]cc(-c3cncc(F)c3)c2c1)c1ccc(F)cc1
R = Fc1cccc(CNc2cnc3[nH]cc(-c4cccnc4)c3c2)c1
S = Fc1cc(F)cc(CNc2cnc3[nH]cc(C4=CCCCC4)c3c2)c1
T = COc1cncc(-c2c[nH]c3ncc(NCc4ccc(F)cc4)cc23)c1
Query :: # rank_down: sort by Activity, max first Give the labels in the order specified.
Result :: S, Q, P, T, R

----------
test.summary: Half life in Balb/c mouse at 10 mg/kg, iv measured upto24 hrs by LC/MS/MS analysis
Format: ADME, organism-based
particulars: in vivo, time 24 hrs
quantity.kind: half-life (min)
Give just the number in min; leave the unit off.

Short answer for `CN1CCN(c2ccc(C(=O)Nc3cnc4[nH]cc(-c5cncc(F)c5)c4c3)cc2)CC1` : half-life was 178

----------
test.summary: Clearance in Balb/c mouse at 10 mg/kg, po measured upto24 hrs by LC/MS/MS analysis
Format: ADME, organism-based
particulars: in vivo, time 24 hrs
quantity.kind: CL/F (mL/min/kg)
// return numeric value only (unit: mL/min/kg, not printed)

Sure, the documented CL/F for `CN1CCN(c2ccc(C(=O)Nc3cnc4[nH]cc(-c5cncc(F)c5)c4c3)cc2)CC1` is 91.8

----------
Species: Homo sapiens
test.summary: Selectivity index, ratio of IC50 for inhibition of human full length recombinant DYRK1A to IC50 for inhibition of human 130-end recombinant CLK1
quantity.kind: Selectivity Index

a = COc1cc(Cl)ccc1C(=O)Nc1cnc2[nH]cc(-c3cncc(F)c3)c2c1
b = O=C(Nc1cnc2[nH]cc(-c3cccnc3)c2c1)c1ccc(C(F)(F)F)c(F)c1
c = CN1CCN(c2ccc(C(=O)Nc3cnc4[nH]cc(-c5cncc(F)c5)c4c3)cc2)CC1
d = COc1cncc(-c2c[nH]c3ncc(NCc4cccc(F)c4)cc23)c1
Query :: Write the entries in order, lowest recorded Selectivity Index first. Put the labels in the requested order and list them out.
Result :: b, a, d, c
(b: 41, a: 60.5, d: 119, c: 304)

----------
test.summary: Clearance in Balb/c mouse at 10 mg/kg, iv measured upto24 hrs by LC/MS/MS analysis
Format: ADME, organism-based
particulars: in vivo, time 24 hrs
quantity.kind: clearance (mL/min/kg)
State just the number; it will be interpreted in mL/min/kg.

// recorded clearance for `CN1CCN(c2ccc(C(=O)Nc3cnc4[nH]cc(-c5cncc(F)c5)c4c3)cc2)CC1` : 17.5

----------
system.under.test: Dual specificity protein kinase CLK1 (Homo sapiens, UniProt P49759)
test.summary: Inhibition of human 130-end recombinant CLK1 assessed as remaining activity using ERMRPRKRQGSVR as substrate at 100 nM by [gamma-32P]ATP binding based scintillation counting based analysis relative to control
quantity.kind: Activity (%)

As a guide, the following entries are already answered.
[
  {
    "smiles.text": "Fc1cc(F)cc(CNc2cnc3[nH]cc(-c4ccc(C(F)(F)F)cc4)c3c2)c1",
    "system.under.test": "Dual specificity protein kinase CLK1 (Homo sapiens, UniProt P49759)",
    "Activity, %": 80
  },
  {
    "smiles.text": "Fc1cc(F)cc(CNc2cnc3[nH]cc(-c4ccc5ccccc5c4)c3c2)c1",
    "system.under.test": "Dual specificity protein kinase CLK1 (Homo sapiens, UniProt P49759)",
    "Activity, %": 80
  }
]

P = O=S(=O)(Nc1cnc2[nH]cc(-c3cncc(F)c3)c2c1)c1ccc(F)cc1
Q = CN1CCN(c2ccc(CNc3cnc4[nH]cc(-c5cncc(F)c5)c4c3)cc2)CC1
Query :: Among P and Q , which shows a numerically higher Activity result? Mark your selection by writing its label.
Result :: P

----------
test.summary: Oral bioavailability in Balb/c mouse at 10 mg/kg measured upto24 hrs by LC/MS/MS analysis
Type: ADME, organism-based
particulars: in vivo, time 24 hrs
quantity.kind: bioavailability (%)
All answers are understood in %, so give the number only.

// bioavailability lookup, compound = `CN1CCN(c2ccc(C(=O)Nc3cnc4[nH]cc(-c5cncc(F)c5)c4c3)cc2)CC1` , result: 19.5

----------
system.under.test: Dual specificity protein kinase CLK1 (Homo sapiens)
test.summary: Inhibition of human 130-end recombinant CLK1 assessed as remaining activity using ERMRPRKRQGSVR as substrate at 100 nM by [gamma-32P]ATP binding based scintillation counting based analysis relative to control
quantity.kind: Activity (%)

The following molecules have reported results that may help.
[
  {
    "smiles.text": "COc1cncc(-c2c[nH]c3ncc(NC(=O)c4ccc(F)cc4)cc23)c1",
    "system.under.test": "Dual specificity protein kinase CLK1 (Homo sapiens)",
    "Activity [%]": 13
  },
  {
    "smiles.text": "Fc1cc(F)cc(CNc2cnc3[nH]cc(-c4cc5ccccc5s4)c3c2)c1",
    "system.under.test": "Dual specificity protein kinase CLK1 (Homo sapiens)",
    "Activity [%]": 65
  },
  {
    "smiles.text": "Fc1ccc(/C=N/c2cnc3[nH]cc(-c4cncc(F)c4)c3c2)cc1",
    "system.under.test": "Dual specificity protein kinase CLK1 (Homo sapiens)",
    "Activity [%]": 70
  }
]

1 = COc1ccc(-c2cnc3ccc(NCc4ccc(N(C)C)cc4)cn23)cc1
2 = Fc1cc(F)cc(CNc2cnc3[nH]cc(-c4cccnc4)c3c2)c1
Query :: Task for the reader: decide whether 1 or 2 has the larger Activity. // caller expects the label of the chosen entry
Result :: 1

----------
system.under.test: UniProtKB P49759
test.summary: Inhibition of human 130-end recombinant CLK1 assessed as remaining activity using ERMRPRKRQGSVR as substrate at 100 nM by [gamma-32P]ATP binding based scintillation counting based analysis relative to control
quantity.kind: Activity (%)

[
  {
    "smiles.text": "CC(C)(C)c1cccc(CNc2cnc3[nH]cc(-c4cccnc4)c3c2)c1",
    "assay.result": 27
  }
]

a = O=C(Nc1cnc2[nH]cc(-c3cccnc3)c2c1)c1ccc(F)cc1
b = COc1ccc(-c2cnc3ccc(NCc4ccc(F)cc4)cn23)cc1
c = COc1cc(Cl)ccc1C(=O)Nc1cnc2[nH]cc(-c3cncc(F)c3)c2c1
Query :: Sort the compounds on Activity; start with the lowest figure. Order the labels as requested and give them as your answer.
Result :: c, a, b

----------
system.under.test: Dual specificity tyrosine-phosphorylation-regulated kinase 1A (Homo sapiens, UniProt Q13627)
test.summary: Inhibition of human full length recombinant DYRK1A assessed as remaining activity using RRRFRPASPLRGPP as substrate at 100 nM by [gamma-32P]ATP binding based scintillation counting based analysis relative to control
quantity.kind: Activity (%)

[
  {
    "smiles.text": "COc1cc(Cl)ccc1C(=O)Nc1cnc2[nH]cc(-c3cncc(F)c3)c2c1",
    "Activity (%)": 92
  },
  {
    "smiles.text": "Fc1cc(F)cc(CNc2cnc3[nH]cc(-c4cccnc4)c3c2)c1",
    "Activity (%)": 91
  },
  {
    "smiles.text": "O=C(Nc1cnc2[nH]cc(-c3cccnc3)c2c1)c1ccc(F)cc1",
    "Activity (%)": 90
  },
  {
    "smiles.text": "COc1ccc(-c2cnc3ccc(NCc4ccc(F)cc4)cn23)cc1",
    "Activity (%)": 110
  },
  {
    "smiles.text": "O=S(=O)(Nc1cnc2[nH]cc(-c3cncc(F)c3)c2c1)c1ccc(F)cc1",
    "Activity (%)": 94
  },
  {
    "smiles.text": "COc1cncc(-c2c[nH]c3ncc(NCc4cccc(F)c4)cc23)c1",
    "Activity (%)": 89
  },
  {
    "smiles.text": "Fc1cccc(/C=N/c2cnc3[nH]cc(-c4cncc(F)c4)c3c2)c1",
    "Activity (%)": 74
  },
  {
    "smiles.text": "COc1ccc(-c2cnc3ccc(NCc4cc(F)cc(F)c4)cn23)cc1",
    "Activity (%)": 91
  },
  {
    "smiles.text": "CC(C)(C)c1cccc(CNc2cnc3[nH]cc(-c4cccnc4)c3c2)c1",
    "Activity (%)": 103
  },
  {
    "smiles.text": "COc1cncc(-c2c[nH]c3ncc(NC(=O)c4ccc(Cl)cc4OC)cc23)c1",
    "Activity (%)": 95
  },
  {
    "smiles.text": "COc1cc(Cl)ccc1C(=O)Nc1cnc2[nH]cc(-c3cccnc3)c2c1",
    "Activity (%)": 84
  },
  {
    "smiles.text": "O=C(Nc1cnc2[nH]cc(-c3cncc(F)c3)c2c1)c1ccco1",
    "Activity (%)": 88
  }
]
